A collection of compounds and their measured IC50
Biological target: HLA B*1501 (Homo sapiens, UniProt P01889, A329T/A93T/A95T/C349S/D201E/D98Y/E187L/E204Q/E69M/E70A/K202T/N87E/Q94N/R155S/R180W/S121R/S35A/S48A/V306I/V36M/Y140S/Y91S)
Test: biochemical
Where a SMILES comes first, the peptide text is derived from it.
State just the number; it will be interpreted in nM.

Data point: CC(C)[C@H](NC(=O)[C@H](CCC(N)=O)NC(=O)[C@@H](N)CO)C(=O)N[C@@H](CCCCN)C(=O)N[C@@H](CS)C(=O)N[C@@H](CS)C(=O)N[C@@H](Cc1c[nH]cn1)C(=O)N[C@@H](Cc1ccc(O)cc1)C(=O)N[C@@H](Cc1ccccc1)C(=O)O [3102.1126] (H-SQVKCCHYF-OH) ; IC50 = 0.92

For this compound ( CC[C@H](C)[C@H](NC(=O)[C@H](C)N)C(=O)N[C@@H](CC(N)=O)C(=O)N[C@@H](CC(N)=O)C(=O)N[C@@H](CCCNC(=N)N)C(=O)N[C@H](C(=O)N[C@@H](CS)C(=O)N[C@H](C(=O)N[C@@H](CCSC)C(=O)O)C(C)C)[C@@H](C)CC [3102.0865] (H-AINNRICVM-OH) ), measured IC50 is 51

Sample CC(C)C[C@H](NC(=O)[C@H](CC(N)=O)NC(=O)[C@H](C)NC(=O)[C@H](CO)NC(=O)[C@@H](N)CC(C)C)C(=O)N[C@@H](Cc1ccccc1)C(=O)N[C@@H](CCC(=O)O)C(=O)N[C@@H](CO)C(=O)N[C@@H](CCC(N)=O)C(=O)O [3102.0959] (H-LSANLFESQ-OH) ; IC50 observed: 45

The reported value for CC[C@H](C)[C@H](NC(=O)[C@H](CO)NC(=O)[C@H](CC(N)=O)NC(=O)[C@H](CC(C)C)NC(=O)[C@@H](N)CO)C(=O)N[C@@H](Cc1ccccc1)C(=O)N[C@@H](CC(N)=O)C(=O)N[C@H](C(=O)N[C@@H](Cc1ccccc1)C(=O)O)[C@@H](C)O [3102.1238] (H-SLNSIFNTF-OH) in terms of IC50 is 2.2
